Target: human ether-à-go-go-related gene (hERG) potassium channel (human, UniProt Q12809);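 note: peak tail current of the secondary pulse compared with the same well before compound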
Sequence (Q12809 whole entry, looked up): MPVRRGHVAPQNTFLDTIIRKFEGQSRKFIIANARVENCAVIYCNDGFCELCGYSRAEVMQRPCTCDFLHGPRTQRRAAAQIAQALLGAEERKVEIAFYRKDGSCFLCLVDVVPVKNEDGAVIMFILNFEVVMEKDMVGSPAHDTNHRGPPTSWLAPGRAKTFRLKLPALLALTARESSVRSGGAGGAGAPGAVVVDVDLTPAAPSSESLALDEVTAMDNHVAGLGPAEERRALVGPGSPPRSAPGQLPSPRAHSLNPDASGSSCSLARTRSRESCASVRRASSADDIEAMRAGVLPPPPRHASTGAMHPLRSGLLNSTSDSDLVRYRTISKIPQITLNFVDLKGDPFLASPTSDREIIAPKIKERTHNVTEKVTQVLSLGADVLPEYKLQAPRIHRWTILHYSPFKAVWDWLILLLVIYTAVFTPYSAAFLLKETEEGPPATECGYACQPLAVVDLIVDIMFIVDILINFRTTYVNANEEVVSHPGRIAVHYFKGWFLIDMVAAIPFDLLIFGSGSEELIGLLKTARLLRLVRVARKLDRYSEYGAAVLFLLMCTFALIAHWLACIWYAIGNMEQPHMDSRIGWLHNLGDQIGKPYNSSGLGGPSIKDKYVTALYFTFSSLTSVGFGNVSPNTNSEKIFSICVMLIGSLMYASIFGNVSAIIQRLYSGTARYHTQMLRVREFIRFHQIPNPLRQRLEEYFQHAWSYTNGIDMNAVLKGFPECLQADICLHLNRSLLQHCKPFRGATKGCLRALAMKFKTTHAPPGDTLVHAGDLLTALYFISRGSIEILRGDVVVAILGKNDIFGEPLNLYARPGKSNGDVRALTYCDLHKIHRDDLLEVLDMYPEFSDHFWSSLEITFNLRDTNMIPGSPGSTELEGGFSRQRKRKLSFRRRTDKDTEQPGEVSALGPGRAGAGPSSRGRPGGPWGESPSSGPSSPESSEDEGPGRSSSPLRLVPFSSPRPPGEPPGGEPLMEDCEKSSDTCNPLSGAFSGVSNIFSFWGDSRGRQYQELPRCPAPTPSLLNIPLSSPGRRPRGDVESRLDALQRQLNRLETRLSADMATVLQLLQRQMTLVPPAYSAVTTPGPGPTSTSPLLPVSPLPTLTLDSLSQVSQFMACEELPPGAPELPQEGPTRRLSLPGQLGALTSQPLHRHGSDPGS
Experiment: primary screen, population patch clamp on CHO cells stably expressing hERG; higher = less effect of the substance
In all, about 310,000 compounds went through this assay and about 14,000 (4.5%) showed an effect of 50% or more. The effect is printed as a negative number. What follows is part of a selection rich in strong results, with near analogues and random picks from the rest.
Cut-off -50% on hERG current change (%, negative = inhibition) at 10uM, inclusive. At or above means Satisfied; below means Not satisfied.

Identify whether the reported hERG current change (%, negative = inhibition) at 10uM of the following compound is -50% or greater: Cc1nonc1C(=O)N1CCCC(N2CCN(c3ccc(F)cc3)CC2)C1 (stereo not drawn)
Not satisfied

What about this compound? COc1ccccc1N1CCN(C2CCCN(C(=O)c3cc(C)oc3C)C2)CC1 (stereo not drawn)
Satisfied

Try this compound too: CCOC(=O)C1=C(C)OC(N)=C(C#N)C1c1cc2ccccc2nc1N1CCCCC1 (stereo not drawn)
Satisfied

Could you do the same for COc1ccc(OC)c(N=c2oc3cc(O)ccc3cc2C(N)=O)c1 , please?
Satisfied

Same lookup for Cc1cc(C)c(C(=O)N2CCCC(N3CCN(c4ccc(F)cc4)CC3)C2)o1 (stereo not drawn) , please.
Not satisfied

Repeat for the following compound: Cc1cc(C)c(C(=O)N2CCCC(N3CCN(c4cccc(C(F)(F)F)c4)CC3)C2)o1 (stereo not drawn)
Not satisfied

Would you mind doing Cc1cc(C(=O)N2CCCC(N3CCN(c4cccc(C(F)(F)F)c4)CC3)C2)c(C)o1 (stereo not drawn) as well?
Satisfied

Query Cc1cc(C(=O)N2CCCC(N3CCN(c4ccc(F)cc4)CC3)C2)c(C)o1 (stereo not drawn) next
Not satisfied
